# Test system: OVCAR-5 ovarian
# experimentalProtocol: NCI-60 one-dose screen, 48 h (100 = growth as untreated, 0 = no growth, -100 = all killed)
# conditionsUsed: 10 µM
This is part of a sample that, as a whole, favours compounds with a hit. Of some 83,000 tested, about 20% had one in any assay.
valueKind: growth (%)
Give bare numbers, in %.

In the examples that follow, each entry is paired with its recorded growth.
COc1cc(/C(=C2/O[C@@H]([C@H]3COC(C)(C)O3)[C@H]3OC(C)(C)O[C@@H]23)c2ccc3ccccc3c2)cc(OC)c1OC
38.2
NC1=NC(=O)C(c2ccccc2)(c2ccccc2)S1
109
C#Cc1ccc(-n2c(/C=C/c3cc(OC)cc(OC)c3)nc3ncccc3c2=O)cc1
129
O=C(Nc1cccc(-n2cc(-c3ccncc3)c(-c3cc(O)cc(Cl)c3)n2)c1)c1ccc(N2CCOCC2)c(C(F)(F)F)c1
81.4
O=C(N/N=C/c1cc2ccccc2c2ccccc12)c1cc(O)c(O)c(O)c1
90.4
O=C1OCC2=C1C(c1cccc(Br)c1)c1cc3c(cc1N2CCO)CCC3 (centres undefined)
22.4

Would you be so kind as to report growth for each listed record?
1. COc1cc2cc3c(nc2cc1OC)CCN3Cc1ccc(NC(=O)Nc2ccc(F)cc2F)cc1
2. O=C(Nc1ccc(Cl)c([N+](=O)[O-])c1)Nc1nc2ccccc2s1
3. CSc1nn(-c2ccccc2)c2ncnc(Oc3ccccc3)c12

1. 105
2. 103
3. 96.2

* * *

# Test system: OVCAR-8 ovarian
# experimentalProtocol: NCI-60 one-dose screen, 48 h
# conditionsUsed: 10 µM
Compounds without any hit were thinned out: in the full panel of roughly 83,000, 20% have a hit. Activity calls are given as the source filed them. The calls were made as follows: active = growth percent below 10; inactive = the rest.
The categories you may choose from are active, inactive

Example entries begin here.
N#CSCC1CC(O)(c2ccccc2)CC(c2ccc(Cl)cc2)O1 (configuration not stated)
inactive
Nc1c(C(=O)Nc2cccc(Br)c2)sc2nc3c(cc12)C(O)CCC3 (configuration not stated)
inactive
COc1ccc(OC)c(/C=C/c2nnc(Nc3ccc(Cl)cc3)o2)c1
inactive
CN(C)CC(O)c1ccc2cc(Br)c3ccccc3c2c1 (configuration not stated)
inactive
O=C1/C(=C\c2cn(C(=O)c3ccc(Cl)cc3)c3ccccc23)c2ccccc2N1C(=O)c1ccc(Cl)cc1
inactive
CCn1cc(C(=O)O)c(=O)c2cnc(N3CCCC3)nc21
inactive
COc1cc(-c2nc(Nc3nc4ccccc4s3)[nH]c(=O)c2C#N)cc(OC)c1O
inactive
COc1ccc2c(c1)sc1nc(-c3ccccc3)c(-c3cccnc3)n12
inactive
CCCCOC(=O)Oc1ccc(C(=O)Oc2ccc(OCC)cc2)cc1
inactive
COc1cc(Cl)cc(-c2nn(-c3cccc(NC(=O)Nc4ccc(Cl)c(Cl)c4)c3)cc2-c2ccncc2)c1
active

# evaluate next
Please indicate how the test categorized `Cc1cc(=O)n2nnc3c4ccccc4ccc3n12` .
inactive

* * *

# Tested on: HT29 colon
# experimentalProtocol: NCI-60 one-dose screen, 48 h (100 = growth as untreated, 0 = no growth, -100 = all killed)
# conditionsUsed: 10 µM
Compounds without any hit were thinned out: in the full panel of roughly 83,000, 20% have a hit.
valueKind: growth (%)
One number for each entry, in %.

In the examples that follow, each entry is paired with its recorded growth.
Clc1ccccc1N=Cc1ccc2c(c1)OCO2
96.3
COc1ccc(/C=C2/CN(C(=O)c3ccc(C)cc3)C/C(=C\c3ccc(OC)cc3)C2=O)cc1
32.9
O=C(Nc1nc2ccccc2s1)Nc1ccc([N+](=O)[O-])cc1Cl
55.8
Nc1c(C(=O)Nc2cccc(Br)c2)sc2nc3c(cc12)C(O)CCC3 (configuration not stated)
5.13
Clc1ccc(-c2cn(-c3ccccc3)c(-c3ccccc3)n2)c(Cl)c1
-100

Would you be so kind as to report growth for each listed record?
1. O=C1/C(=C\c2ccc(F)cc2)CN(C(=O)c2ccccc2)C/C1=C\c1ccc(F)cc1
2. Cc1ccc(NC(=O)Nc2nc3ccccc3s2)cc1NC(=O)Nc1nc2ccccc2s1
3. CCCCCCCCCCCCCCCCCC(=O)OCCCCCCC
4. Cc1cc2c(C)c3cc(C)c(N)cc3nc2cc1N

-50.9
90.1
102
-25.5

* * *

# Test system: MDA-MB-231 breast
# experimentalProtocol: NCI-60 one-dose screen, 48 h
# conditionsUsed: 10 µM
The panel holds about 83,000 compounds, 20% with a hit somewhere; the sample as a whole holds those more often. Calls of active or inactive are those of the source. How the source made its calls: active means growth percent below 10; inactive means the rest.
The categories you may choose from are 1 (yes) for active, 0 (no) for inactive

Example entries begin here.
COc1ccc(/C(=C2\O[C@@H]([C@H]3COC(C)(C)O3)[C@H]3OC(C)(C)O[C@@H]23)c2cc(OC)c(OC)c(OC)c2)cc1O
0 (no)
O=C1/C(=C/c2ccc([N+](=O)[O-])s2)Oc2ccccc21
1 (yes)
O=C1NC(=O)N(Cc2ccccc2)CC1Br (stereo not given)
0 (no)
N#Cc1ncc(-c2cc(F)c(F)c(F)c2)c(NC2CCCCCC2)n1
0 (no)

# evaluate next
Please indicate how the test categorized `COc1ccc(-c2nc3sc(-c4ccc(OC)cc4)c(-c4ccc(OC)cc4)n3c2/C=C/c2ccc(C(C)C)cc2)cc1` .
0 (no)

* * *

# System: MCF7 breast
# experimentalProtocol: NCI-60 one-dose screen, 48 h (100 = growth as untreated, 0 = no growth, -100 = all killed)
# conditionsUsed: 10 µM
About 83,000 compounds went through this panel and 20% of them were active in at least one assay; those are over-represented in the sample as a whole.
Please use yes for growth under 40% and no for everything else, ties included.

Cn1c(C(N)=O)cc2c1-c1nc(Nc3ccccc3)ncc1CCC2
yes
COc1cc(C(=C2O[C@@H]([C@H]3COC(C)(C)O3)[C@H]3OC(C)(C)O[C@@H]23)c2cc(OC)c(OC)c(OC)c2)cc(OC)c1OC
no
Cc1cc(C)c(CCc2cc(C)c(C)cc2C)cc1C
no
COc1cc2c(cc1OCCCCCCN1CCN(CC(=O)Nc3ccc(Cl)cc3C(=O)c3ccccc3Cl)CC1)N=CC1CCCN1C2=O (stereo not given)
yes

# evaluate next
Hello, is growth of the following compound strictly smaller than 40%? `COc1ccc(-c2cc(/C=C3\C(=O)Nc4ccc(OC)cc43)[nH]n2)cc1`
yes

* * *

# Tested on: NCI-H522 lung
# experimentalProtocol: NCI-60 one-dose screen, 48 h
# conditionsUsed: 10 µM
The panel holds about 83,000 compounds, 20% with a hit somewhere; the sample as a whole holds those more often. Activity calls are given as the source filed them. The calls were made as follows: active = growth percent below 10; inactive = the rest.
The categories you may choose from are active, inactive

O=C(O)CC(Cl)C(Cl)CC(=O)O (centres undefined)
inactive
CCN1CCC(CCOC)(CN2c3ccccc3Sc3ccc(Cl)cc32)C1 (centres undefined)
inactive
CCOC(=O)C(=Cc1ccc(Br)cc1)C(=O)OCC
active
Nc1c(C(=O)Nc2cccc(F)c2)sc2nc3c(cc12)C(=O)CCC3
active

# evaluate next
Please indicate how the test categorized `FC(F)(F)c1ccc(-c2cnc(-n3cc(COCCN4CCCCC4)nn3)nc2NC2CCCCCC2)cc1` .
active

* * *

# Tested on: ACHN renal
# experimentalProtocol: NCI-60 one-dose screen, 48 h (100 = growth as untreated, 0 = no growth, -100 = all killed)
# conditionsUsed: 10 µM
The panel holds about 83,000 compounds, 20% with a hit somewhere; the sample as a whole holds those more often.
valueKind: growth (%)
One number for each entry, in %.

COc1cc2nc(Nc3cccc(NC(C)=O)c3)nc(N)c2cc1OC
102
O=C1Nc2ccc(Cl)cc2/C1=C\c1c(-c2ccc(Cl)cc2)nc2sc(C3CC3)nn12
44.4
COc1ccc2c(c1)sc1nc(-c3ccccc3)c(-c3ccc(O)c(OC)c3)n12
101
CC(C)C[C@H](NC(=O)[C@H](Cc1cccc2ccccc12)NS(=O)(=O)c1cccc2cccnc12)B(O)O
-3.75

Would you be so kind as to report growth for each listed record?
1. COc1ccc(CN2CCC(N3CCCC3=O)c3cc(Cl)ccc32)cc1 (stereo not given)
2. COc1ccc(OC)c2c1C(=O)CC2C (stereo not given)
3. Nc1ncn([C@@H]2O[C@H](CO)[C@@H](O)[C@H]2O)c(=O)n1
4. COc1ccc(-c2nn(-c3cccc(NC(=O)c4ccc(Cl)c(Cl)c4)c3)cc2-c2ccncc2)cc1Cl
5. c1ccc(CSc2nnc3c4c5c(sc4nc(-c4cccnc4)n23)CCCCCC5)cc1

1. 101
2. 113
3. 11.8
4. 78.8
5. 73.7

Query for ACHN renal: what growth does the record show for CN(C)CC(O)c1ccc2cc(Br)c3ccccc3c2c1 (stereo not given) ?
17.2

* * *

# Test system: T-47D breast
# experimentalProtocol: NCI-60 one-dose screen, 48 h (100 = growth as untreated, 0 = no growth, -100 = all killed)
# conditionsUsed: 10 µM
The panel holds about 83,000 compounds, 20% with a hit somewhere; the sample as a whole holds those more often.
Kindly supply the reported growth values for the records listed here.
Give bare numbers, in %.

In the examples that follow, each entry is paired with its recorded growth.
COc1cc(/C=N/NC(=O)c2ccccc2Nc2ccnc(C(F)(F)F)c2)ccc1O
116
CC(=O)/C(=C/c1ccccc1)C(=O)CC(C)C
107
Cc1ccc(Nc2nnc(-c3cc(-c4ccncc4)n(-c4ccccc4)n3)s2)cc1
64.5
Cn1c([N+](=O)[O-])cnc1/C=C1\Oc2ccccc2C1=O
87.3

Would you be so kind as to report growth for each listed record?
1. CC[C@H](C)C(=O)O[C@H]1CCC=C2C=C[C@H](C)C(CCC3C[C@@H](O)CC(=O)O3)[C@H]21 (stereo not given in full)
2. O=C(Nc1ccncc1)C(=O)c1cn(S(=O)(=O)c2cccc(Cl)c2)c2ccccc12
3. Nc1cc2c(cc1Cl)-c1ccc([N+](=O)[O-])cc1/C2=N\O
4. CCC(=O)N1C/C(=C/c2ccc(OC)cc2)C(=O)/C(=C/c2ccc(OC)cc2)C1
5. CN(C)c1ccc(-c2cc(-c3cccc(NS(C)(=O)=O)c3)nc(N)c2C#N)cc1
6. COc1ccc(-c2nc(-c3nc4cc(Cl)c(F)cc4[nH]3)c3ccccn23)cc1

105
70
101
57
80.4
39.7

// data source = PubChem BioAssay (NCI)
